Biological target: UniProt:P55210
Sequence (P55210 24-198 limits assumed): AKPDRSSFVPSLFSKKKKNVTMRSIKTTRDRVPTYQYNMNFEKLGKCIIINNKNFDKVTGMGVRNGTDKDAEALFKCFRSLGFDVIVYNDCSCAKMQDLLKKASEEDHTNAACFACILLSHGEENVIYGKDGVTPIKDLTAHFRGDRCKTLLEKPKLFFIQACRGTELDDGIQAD
Sequence (P55210 207-303 limits assumed): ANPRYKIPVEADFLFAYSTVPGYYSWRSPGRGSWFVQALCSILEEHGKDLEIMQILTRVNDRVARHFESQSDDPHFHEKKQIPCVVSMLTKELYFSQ
Experiment: Inhibitory activity against recombinant human Caspase-7
This listing pairs molecules with measured IC50.
Report only the number, with the unit nM understood.

Below, each entry is followed by its recorded IC50 result.
* COc1ccc(Br)cc1CC(=O)N[C@H](C(=O)N[C@@H](CC(=O)O)C(=O)CSCc1ccccc1)C(C)C (stereo in doubt; 6) | 284
* CC(C)[C@H](NC(=O)[C@H](O)c1ccccc1)C(=O)N[C@@H](CC(=O)O)C(=O)CSCc1ccccc1 | 1050
* COc1ccc(Br)cc1CC(=O)N[C@H](C(=O)N[C@@H](CC(=O)O)C(=O)CSCc1ccccc1)C(C)C (stereo in doubt; 29) | 285

Pending molecule:
Data request: Give the measured IC50 of C#CC[C@@H](C(=O)N[C@H](C(=O)N[C@@H](CC(=O)O)C(=O)CSCc1ccccc1)C(C)C)c1cc(Br)ccc1OC (stereo in doubt; 14) .
Data returned: 139
